Test Protocol: chemical genetic growth profiling, strain panel (AID 1159580);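 further: tested at 20 µM; growth read once vehicle control cultures reached saturation at 30 °C; 1 = growth at the plate median or of vehicle wells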
Assay Conditions: S. cerevisiae deletion strains, growth OD, locus YJL115W, strain asf1, stronger effect = lower value
Screen size: about 5,500 compounds; about 2,000 (36%) were called active. About 18% were inconclusive and are not listed. The list shows a part of the results.
Observation Type: normalized growth
Form: value (number only, do not type unit).

Recorded results for 5 compounds are shown here.
O=c1cccc2n1CC1CC2CN2CCCC[C@@H]12 (stereo partly drawn)	0.988
C1N2CN3CN1CN(C2)C3	0.985
NCC[C@@H](O)C(=O)N[C@@H]1C[C@H](N)[C@@H](O[C@H]2O[C@H](CN)[C@@H](O)[C@H](O)[C@H]2O)[C@H](O)[C@H]1O[C@H]1O[C@H](CO)[C@@H](O)[C@H](N)C1O (stereo partly drawn)	1.04
COC1C=CC23c4cc5c(cc4CN(CC2O)[C@@H]3C1)OCO5 (stereo partly drawn)	0.988
CC(=O)O[C@H]1C[C@@]2(C)[C@@H](C[C@@H](O)C3[C@]2(C)CC[C@H]2[C@H](C)[C@H](O)CC[C@]32C)/C1=C(/CCC=C(C)C)C(=O)O (stereo partly drawn)	1.03

Exercise: Reported normalized growth for COc1ccnc(CS(=O)c2nc3ccc(OC(F)F)cc3[nH]2)c1OC (stereo not drawn) : what is it?
Solution: 1.02

Exercise: Reported normalized growth for CC(C)/C(O)=C1/C(=O)O[C@@H](c2ccoc2)[C@]2(C)C(O)[C@@H](O)[C@@]34OC5(C)OC67CC(C)(C(O)[C@]6(O)[C@@H](O)[C@]3(O5)C12)[C@H](CC(=O)O)[C@]74C (stereo partly drawn) : what is it?
Solution: 0.977

Exercise: Reported normalized growth for O=c1[nH]c(=O)n(C2C[C@H](O)[C@@H](CO)O2)cc1C(F)(F)F (stereo partly drawn) : what is it?
Solution: 0.928

###

Test Protocol: chemical genetic growth profiling, strain panel (AID 1159580);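 further: tested at 20 µM; growth read once vehicle control cultures reached saturation at 30 °C; 1 = growth at the plate median or of vehicle wells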
Assay Conditions: S. cerevisiae deletion strains, growth OD, locus YLR342W, strain FKS1, stronger effect = lower value
In all, about 5,500 compounds went through this assay and about 2,000 (36%) were called active. Inconclusive results (about 18%) are left out. The list shows a part of the results.
Entries and their normalized growth
Form: value (number only, do not type unit).

Exercise: Reported normalized growth for CC(=O)C1CC[C@H]2C3CC[C@H]4C[C@H](O)CC[C@]4(C)C3CC[C@]12C (some centres not stated) : what is it?
Solution: 1.01

Exercise: Reported normalized growth for Clc1ccc(COC(Cn2ccnc2)c2ccc(Cl)cc2Cl)c(Cl)c1 (configuration not stated) : what is it?
Solution: 0.0655

Exercise: Reported normalized growth for CC1C/C=C/C=C/C=C/C=C/C(O[C@@H]2O[C@H](C)[C@@H](O)[C@H](N)[C@@H]2O)CC2OC(O)(CC(O)CC3OC3/C=C/C(=O)O1)CC(O)C2C(=O)O (some centres not stated) : what is it?
Solution: 0.994

Exercise: Reported normalized growth for CC12CCCCC1(Br)[N+](=O)N2[O-] (configuration not stated) : what is it?
Solution: 0.946

Exercise: Reported normalized growth for CC(=O)OCC(=O)[C@@]1(O)CCC2C3CCC4=CC(=O)C=CC4(C)C3[C@@H](O)C[C@@]21C (some centres not stated) : what is it?
Solution: 0.992

Exercise: Reported normalized growth for CC(C)(S)[C@@H](N)C(=O)O : what is it?
Solution: 1.01

Exercise: Reported normalized growth for NC(C(=O)O)C(O)C(=O)O (configuration not stated) : what is it?
Solution: 0.999

Exercise: Reported normalized growth for Clc1ccc(C(c2ccccc2Cl)C(Cl)Cl)cc1 (configuration not stated) : what is it?
Solution: 0.999

Exercise: Reported normalized growth for NCCCCC(=O)O : what is it?
Solution: 1.02

Exercise: Reported normalized growth for CC1(C)N([O-])[N+](=O)C1(C)Br (configuration not stated) : what is it?
Solution: 0.978

Exercise: Reported normalized growth for CC(=O)C1CCC2C3CCC4C[C@H](O)CCC4(C)C3C[C@H](O)C12C (some centres not stated) : what is it?
Solution: 0.977

Exercise: Reported normalized growth for COc1c(C)c2c(c(O)c1C/C=C(\C)CCC(=O)O)C(=O)OC2 : what is it?
Solution: 0.442

Exercise: Reported normalized growth for Fc1ccc([C@@H]2CCNC[C@H]2COc2ccc3c(c2)OCO3)cc1 : what is it?
Solution: 0.996

###

Test Protocol: chemical genetic growth profiling, strain panel (AID 1159580);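 further: tested at 20 µM; growth read once vehicle control cultures reached saturation at 30 °C; 1 = growth at the plate median or of vehicle wells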
Assay Conditions: S. cerevisiae deletion strains, growth OD, locus YJL164C, strain tpk1
Hit rate of the full screen: of about 5,500 compounds, about 2,000 (36%) were called active. Roughly 18% stayed inconclusive and do not appear here. No stated cut-off is given here; in the data, active means normalized growth mostly below about 0.91 (no sharp cut-off); inconclusive means no clear call, values can overlap the other calls; inactive means mostly above about 0.92. The list shows a part of the results.
Parameter call: string, one of yes (1) for active, no (0) for inactive

Clc1ccc(CO/N=C(/Cn2ccnc2)c2ccc(Cl)cc2Cl)c(Cl)c1	yes (1)

Exercise: Hey, what did the test say about CC(=O)N[C@@H](CCC(=O)O)C(=O)O ?
Solution: no (0)

Exercise: Hey, what did the test say about CC12CCC3C(=CCc4cc(O)ccc43)C1CCC2=O (centres undefined) ?
Solution: no (0)

Exercise: Hey, what did the test say about CN(C)C(=O)Oc1ccc[n+](C)c1 ?
Solution: no (0)

Exercise: Hey, what did the test say about O=c1oc2ccccc2cc1O ?
Solution: no (0)

Exercise: Hey, what did the test say about CC1OC(O[C@H]2/C=C/C=C/C=C/C=C/C=C/C=C/C=C/[C@H](C)[C@@H](O)[C@@H](C)[C@H](C)OC(=O)CC(O)CC(O)CCC(O)C(O)CC(O)C[C@]3(O)C[C@H](O)C(C(=O)O)C(C2)O3)C(O)[C@H](N)C1O (some centres undefined) ?
Solution: no (0)

###

Entries and their normalized growth
Test Protocol: chemical genetic growth profiling, strain panel (AID 1159580);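 further: tested at 20 µM; growth read once vehicle control cultures reached saturation at 30 °C; 1 = growth at the plate median or of vehicle wells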
Assay Conditions: S. cerevisiae deletion strains, growth OD, locus YOR316C, strain cot1, stronger effect = lower value
Among all 5,500 compounds or so, about 2,000 (36%) were called active. Another 18% or so got no clear call; they are omitted. The list shows a part of the results.
Form: value (number only, do not type unit).

Recorded results for 5 compounds are shown here.
CCC(=O)OC1[C@@H]2CC3=C4CC(=O)O[C@@H](c5ccoc5)[C@]4(C)CCC3[C@@](C)(C2=O)[C@@H](CC(=O)OC)C1(C)C (stereo not given in full)	1.01
CC(=O)Oc1ccc2c(c1)CCC1C2CC[C@]2(C)C(=O)CCC12 (stereo not given in full)	1.03
COc1ccc2oc3ccccc3c(=O)c2c1	0.903
CC12CCC3C(=CCc4cc(O)ccc43)C1CCC2=O (stereo not given)	0.987
NCCCCNCCCN	0.979

Exercise: Reported normalized growth for Oc1c(Cl)cc(Cl)c(Cl)c1Cc1c(O)c(Cl)cc(Cl)c1Cl : what is it?
Solution: 0.0584

Exercise: Reported normalized growth for Clc1ccc(COC(Cn2ccnc2)c2ccc(Cl)cc2Cl)c(Cl)c1 (stereo not given) : what is it?
Solution: 0.0648

Exercise: Reported normalized growth for O=C(O)CCCCCCCC(=O)O : what is it?
Solution: 0.985

Exercise: Reported normalized growth for NCCCC(=O)O : what is it?
Solution: 1.03

Exercise: Reported normalized growth for CCCCCCCCCCCC(=O)OCC(COP(=O)(O)OCC(O)COP(=O)(O)OCC(COC(=O)CCCCCCCCCCC)OC(=O)CCCCCCCCCCC)OC(=O)CCCCCCCCCCC (stereo not given) : what is it?
Solution: 1.02

Exercise: Reported normalized growth for CC(C)/C(O)=C1/C(=O)O[C@@H](c2ccoc2)[C@]2(C)C(O)[C@@H](O)[C@@]34OC5(C)OC67CC(C)(C(O)[C@]6(O)[C@@H](O)[C@]3(O5)C12)[C@H](CC(=O)O)[C@]74C (stereo not given in full) : what is it?
Solution: 1.01

Exercise: Reported normalized growth for OC[C@H]1O[C@@H](n2cnc3c(NCc4ccco4)ncnc32)[C@H](O)[C@@H]1O : what is it?
Solution: 1

Exercise: Reported normalized growth for O=c1cccc2n1CC1CC2CN2CCCC[C@@H]12 (stereo not given in full) : what is it?
Solution: 0.976

Exercise: Reported normalized growth for Cc1cccc(C)c1NC(=O)C1CCCCN1C (stereo not given) : what is it?
Solution: 1.01

Exercise: Reported normalized growth for Cc1nnc(NS(=O)(=O)c2ccc(N)cc2)s1 : what is it?
Solution: 0.99

Exercise: Reported normalized growth for C[C@]12CCC3c4ccc(OC(=O)CCC(=O)O)cc4CCC3C1CCC2=O (stereo not given in full) : what is it?
Solution: 0.997

Exercise: Reported normalized growth for O=C(O)C1CCCNC1 (stereo not given) : what is it?
Solution: 1.02

Exercise: Reported normalized growth for COC[C@]12CN(C=O)C3[C@@H]4[C@H](OC)C1[C@]3(C1CC3(O)C(OC)C(O)C4(OC(C)=O)C1C3OC(=O)c1ccccc1)[C@@H](OC)C[C@H]2O (stereo not given in full) : what is it?
Solution: 1.01

Exercise: Reported normalized growth for COc1cc2c(cc1OC)C1(O)C(=O)c3ccc(O)c(C(=O)O)c3OC1CO2 (stereo not given) : what is it?
Solution: 0.976

Exercise: Reported normalized growth for COC1=CC(=O)OC(CCc2ccc(OC)c(OC)c2)C1 (stereo not given) : what is it?
Solution: 1.02

Exercise: Reported normalized growth for C1N2CN3CN1CN(C2)C3 : what is it?
Solution: 0.968

Exercise: Reported normalized growth for Clc1ccc(COC(Cn2ccnc2)c2ccc(Cl)cc2Cl)cc1 (stereo not given) : what is it?
Solution: 0.0595

Exercise: Reported normalized growth for CC1[C@H](C)OC(=O)CC(O)CC(O)CC(O)CCC(O)C(O)C[C@]2(O)CC(O)C(C(=O)O)C(CC(OC3O[C@H](C)[C@@H](O)[C@H](N)[C@@H]3O)/C=C/C=C/C=C/C=C/CC/C=C/C=C/[C@H](C)[C@H]1O)O2 (stereo not given in full) : what is it?
Solution: 0.236

Exercise: Reported normalized growth for CN(C)C(=O)Oc1ccc[n+](C)c1 : what is it?
Solution: 1.02

Exercise: Reported normalized growth for COc1ccc2c(c1)OCC(Cc1ccc(OC)c(O)c1)C2=O (stereo not given) : what is it?
Solution: 0.959
